# System Under Test: Glucocorticoid receptor (Homo sapiens)
# Experiment Notes: GR-GFP Redistribution (AID 450); also: potency is read from the fitted curve at half-maximal effect
# Recorded Conditions: U2OS GR-GFP nuclear translocation, laser cytometry, 2 h
The source made the active and inactive calls.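 The calls were made as follows: active = compounds whose dose series gives a full or clear partial fitted curve of increased nuclear translocation; inconclusive = weak partial curve or effect only at the top dose; inactive = no dose-dependent translocation response.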
Endpoint: Potency

In the examples that follow, each entry is paired with its recorded Potency.
Ask | Potency for O=c1c(-c2ccc(F)cc2)nc2cnc(N3CCOCC3)nc2n1Cc1ccc(F)cc1 ?
Reply | > 9.22 µM (inactive)

Ask | Potency for CNc1ccnc(-c2ccccc2C)n1 ?
Reply | > 46 µM (inactive)

Ask | Potency for COc1ccc(Oc2ncc3nc(-c4cccs4)c(=O)n(Cc4cccs4)c3n2)cc1 ?
Reply | > 9.22 µM (inactive)

Ask | Potency for c1nc(N2CCOCC2)c2cc(-c3ccoc3)ccc2n1 ?
Reply | > 46 µM (inactive)

Ask | Potency for COc1ccc(Oc2ncc3nc(C)c(=O)n(C4CC4)c3n2)cc1 ?
Reply | > 9.22 µM (inactive)

Ask | Potency for N#Cc1ccccc1-c1ccc2ncnc(NCCN3CCOCC3)c2c1 ?
Reply | > 46 µM (inactive)

Ask | Potency for CC(=O)NCCNc1ncncc1-c1ccccc1CN(C)C ?
Reply | > 46 µM (inactive)

Ask | Potency for COc1ccccc1CNc1ncnc2ccc(-c3c(C)noc3C)cc12 ?
Reply | > 46 µM (inactive)

Continuing:
Ask | Potency for CCNc1ncc2nc(-c3cccc(C#N)c3)c(=O)n(C)c2n1 ?
Reply | > 9.22 µM (inactive)

====

# System Under Test: Ubiquitin carboxyl-terminal hydrolase 1 (Homo sapiens) (UniProt O94782)
# Sequence (O94782 whole entry, looked up): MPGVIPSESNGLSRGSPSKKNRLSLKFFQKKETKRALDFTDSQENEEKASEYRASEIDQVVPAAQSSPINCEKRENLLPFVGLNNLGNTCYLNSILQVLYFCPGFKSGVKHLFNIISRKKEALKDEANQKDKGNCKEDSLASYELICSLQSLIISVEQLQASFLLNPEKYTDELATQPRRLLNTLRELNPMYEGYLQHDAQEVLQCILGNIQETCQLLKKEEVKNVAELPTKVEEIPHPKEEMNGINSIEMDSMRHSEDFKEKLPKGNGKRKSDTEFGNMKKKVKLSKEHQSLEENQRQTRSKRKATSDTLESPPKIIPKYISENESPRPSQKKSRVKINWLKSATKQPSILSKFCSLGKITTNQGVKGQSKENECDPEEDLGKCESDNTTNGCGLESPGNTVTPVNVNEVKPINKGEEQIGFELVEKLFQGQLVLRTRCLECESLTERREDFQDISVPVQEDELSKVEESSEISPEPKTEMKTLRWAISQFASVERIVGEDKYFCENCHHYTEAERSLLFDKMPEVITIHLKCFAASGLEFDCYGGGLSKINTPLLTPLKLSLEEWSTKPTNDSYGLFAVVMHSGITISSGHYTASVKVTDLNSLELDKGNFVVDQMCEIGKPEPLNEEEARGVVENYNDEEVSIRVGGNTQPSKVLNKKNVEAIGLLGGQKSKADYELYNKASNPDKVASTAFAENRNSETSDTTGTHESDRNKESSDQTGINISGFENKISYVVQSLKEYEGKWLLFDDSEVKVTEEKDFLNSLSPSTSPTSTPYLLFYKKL
# Experiment Notes: Inhibitors of USP1/UAF1: Pilot qHTS (AID 504865); also: nearly all actives have a fitted effect of over 35% in size
# Recorded Conditions: purified USP1/UAF1, Ub-rhodamine cleavage fluorescence; series mostly up to 54.9 µM
Results filed as inconclusive are left out. The source made the active and inactive calls. Calls follow the shape of the dose curve; as a rule, active = well fitted inhibition curve with a large enough effect; inconclusive = small, poorly fitted or top-dose-only effect; inactive = flat fitted curve, though single readings scatter.
The reply should name one outcome from 1 = active, 0 = inactive

Ask | Each compound tested received a call. Report the one for CN1CCN(c2ncncc2-c2ccc(N(C)C)cc2)CC1 .
Reply | 0

Continuing:
Ask | Each compound tested received a call. Report the one for COc1ccc(Oc2ncc3ncc(=O)n(-c4ccc(OC)cc4)c3n2)cc1 .
Reply | 0

Ask | Each compound tested received a call. Report the one for COc1cccc(-c2cncnc2Nc2ccccc2)c1 .
Reply | 0

Ask | Each compound tested received a call. Report the one for CN(C)c1ncc2nc(-c3cccs3)c(=O)n(C)c2n1 .
Reply | 0

Ask | Each compound tested received a call. Report the one for COc1ccc2[nH]cc(CCNc3nc(-c4ccccc4CN(C)C)nc4ccccc34)c2c1 .
Reply | 0

Ask | Each compound tested received a call. Report the one for Cc1ccccc1-c1nc(N(C)C)c2ccccc2n1 .
Reply | 0

Ask | Each compound tested received a call. Report the one for Cc1noc(C)c1-c1nccc(NCc2ccccc2)n1 .
Reply | 1

Ask | Each compound tested received a call. Report the one for CCNc1ncc2nc(-c3cn(C)c4ccccc34)c(=O)n(CCC#N)c2n1 .
Reply | 0

Ask | Each compound tested received a call. Report the one for COc1ccc(-c2nc3cnc(N(C)C)nc3n(Cc3ccc(F)cc3)c2=O)cc1 .
Reply | 0

Ask | Each compound tested received a call. Report the one for N#Cc1cccc(-c2nccc(-n3ccnc3)n2)c1 .
Reply | 0

====

# System Under Test: Glucocorticoid receptor (Homo sapiens) (UniProt P04150)
# Sequence (P04150 whole entry, looked up): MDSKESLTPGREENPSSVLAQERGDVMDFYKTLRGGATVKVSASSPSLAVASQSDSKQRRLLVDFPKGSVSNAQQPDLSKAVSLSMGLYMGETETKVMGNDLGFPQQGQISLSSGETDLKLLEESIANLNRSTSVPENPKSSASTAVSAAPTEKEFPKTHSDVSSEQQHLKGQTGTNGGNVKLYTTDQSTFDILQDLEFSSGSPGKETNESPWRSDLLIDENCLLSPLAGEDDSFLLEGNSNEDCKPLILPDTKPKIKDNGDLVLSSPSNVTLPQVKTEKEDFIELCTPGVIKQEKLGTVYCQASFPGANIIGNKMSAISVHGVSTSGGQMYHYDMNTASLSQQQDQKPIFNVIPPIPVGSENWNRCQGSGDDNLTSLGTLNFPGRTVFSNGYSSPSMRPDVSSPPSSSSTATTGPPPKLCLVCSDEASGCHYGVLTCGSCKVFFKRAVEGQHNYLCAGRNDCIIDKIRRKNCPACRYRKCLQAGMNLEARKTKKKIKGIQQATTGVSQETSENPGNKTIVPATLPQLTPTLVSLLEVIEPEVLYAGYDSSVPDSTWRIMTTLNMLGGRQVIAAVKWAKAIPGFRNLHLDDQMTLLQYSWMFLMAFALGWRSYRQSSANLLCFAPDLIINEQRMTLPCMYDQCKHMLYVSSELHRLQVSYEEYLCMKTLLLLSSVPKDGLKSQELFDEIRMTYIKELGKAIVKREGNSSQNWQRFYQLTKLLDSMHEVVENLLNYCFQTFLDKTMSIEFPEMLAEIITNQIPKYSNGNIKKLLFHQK
# Experiment Notes: GR-GFP Redistribution (AID 450); also: potency is read from the fitted curve at half-maximal effect
# Recorded Conditions: U2OS GR-GFP nuclear translocation, laser cytometry, 2 h
The source made the active and inactive calls.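 Rule for the calls: active = compounds whose dose series gives a full or clear partial fitted curve of increased nuclear translocation; inconclusive = weak partial curve or effect only at the top dose; inactive = no dose-dependent translocation response.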
Endpoint: Potency

In the examples that follow, each entry is paired with its recorded Potency.
Ask | Potency for COc1cccc(-c2nccc(N(C)Cc3ccco3)n2)c1 ?
Reply | > 46 µM (inactive)

Ask | Potency for COCCn1c(=O)c(-c2cccc(C#N)c2)nc2cnc(Nc3ccccc3)nc21 ?
Reply | > 9.22 µM (inactive)

Ask | Potency for CS(=O)(=O)Nc1cccc(-c2nc(N3CCOCC3)c3ccccc3n2)c1 ?
Reply | > 46 µM (inactive)

Ask | Potency for c1ccc(CNc2ncnc3ccc(-c4ccc5c(c4)OCO5)cc23)cc1 ?
Reply | > 46 µM (inactive)

Ask | Potency for COc1ccc2[nH]cc(CCNc3ncncc3-c3ccc(C(=O)N(C)C)cc3)c2c1 ?
Reply | > 46 µM (inactive)

Ask | Potency for FC(F)(F)c1ccccc1-c1ccc2ncnc(NC3CC3)c2c1 ?
Reply | > 46 µM (inactive)

Ask | Potency for COCCn1c(=O)c(-c2cccs2)nc2cnc(N3CCOCC3)nc21 ?
Reply | > 9.22 µM (inactive)

Ask | Potency for Cc1cccc(CNc2cc(-c3cccnc3)ncn2)c1 ?
Reply | > 46 µM (inactive)

Ask | Potency for Clc1ccccc1-c1nccc(NCCN2CCOCC2)n1 ?
Reply | > 46 µM (inactive)

Ask | Potency for COc1cccc(-c2ccc3ncnc(N(C)C)c3c2)c1 ?
Reply | > 46 µM (inactive)

Hi there! I need Potency for each item below, if you can.
1. Cc1nc2cnc(Oc3ccccc3)nc2n(Cc2cccs2)c1=O
2. N#CCCn1c(=O)c(-c2ccc(F)cc2)nc2cnc(Oc3cccc(Cl)c3)nc21
3. CS(=O)(=O)Nc1cccc(-c2cc(NCc3cccs3)ncn2)c1
4. COc1ccccc1-c1ccc2ncnc(N(C)Cc3ccco3)c2c1
5. COc1ccccc1-c1cncnc1N(C)Cc1ccco1
6. COc1ccc(CNc2ncncc2-c2ccc3c(c2)OCO3)c(OC)c1
7. Cn1c(=O)c(-c2ccc(F)cc2)nc2cnc(Nc3ccccc3)nc21

Reply |
1: > 9.22 µM (inactive); 2: > 9.22 µM (inactive); 3: > 46 µM (inactive); 4: > 46 µM (inactive); 5: > 46 µM (inactive); 6: > 46 µM (inactive); 7: > 9.22 µM (inactive)

Hi there! I need Potency for each item below, if you can.
1. COc1ccccc1-c1nc(NCc2cccs2)c2ccccc2n1
2. CN1CCN(c2ncc3nc(-c4cn(C)c5ccccc45)c(=O)n(C)c3n2)CC1
3. C[C@@](N)(Cc1ccc(O)cc1)C(=O)O
4. Cc1cnc(CNc2cc(-c3ccoc3)ncn2)cn1
5. COc1ccc(-c2nc3cnc(OC)nc3n(C)c2=O)cc1

Reply |
1. > 46 µM (inactive)
2. > 9.22 µM (inactive)
3. > 46 µM (inactive)
4. > 46 µM (inactive)
5. > 9.22 µM (inactive)

Hi there! I need Potency for each item below, if you can.
1. COc1ncc2nc(CCc3ccccc3)c(=O)n(CCC#N)c2n1
2. COCCn1c(=O)c(-c2cn(C)c3ccccc23)nc2cnc(OCc3ccccc3)nc21
3. Cn1cc(-c2nc3cncnc3n(Cc3ccccc3Cl)c2=O)c2ccccc21
4. COCCNc1nc(-c2ccoc2)nc2ccccc12
5. Cn1c(=O)c(-c2ccc(F)cc2)nc2cnc(OCc3ccccc3)nc21
6. CN(C)c1ccc(-c2cncnc2-n2ccnc2)cc1
7. Cn1c(=O)c(-c2cccc(F)c2)nc2cncnc21

Reply |
> 9.22 µM (inactive)
> 9.22 µM (inactive)
> 9.22 µM (inactive)
> 46 µM (inactive)
> 9.22 µM (inactive)
> 46 µM (inactive)
> 9.22 µM (inactive)

Hi there! I need Potency for each item below, if you can.
1. CN(Cc1ccco1)c1cc(-c2ccccc2C(F)(F)F)ncn1
2. COc1ccccc1-c1cncnc1NCc1cccs1

Reply |
1: > 46 µM (inactive); 2: > 46 µM (inactive)
